test system: CCRF-CEM; assay: NCI tumour cell line growth inhibition, 48 h
Counter-ions that a name gives are not always drawn. The source made the active and inactive calls. Cut-off read from the data, not from the text of the source: active = GI50 up to about 1.1 µM and inactive = higher.
Labels: 1 = active, 0 = inactive

* Cc1ccc(/N=C2/SC(c3ccc(C)cc3)(c3ccc(C)cc3)c3ccccc32)cc1 | 0
* O=P1(Oc2ccccc2)NCc2ncccc2O1 (configuration not stated) | 0
* CC(C)Cc1ccc(C(C)/C=C2\CCC(CN3CCCCC3)C2=O)cc1 (configuration not stated) | 0
* COc1ccc(-c2c3c(n(C4OC(CO)C(O)C(O)C4O)c(=S)c2C#N)CC(C)(C)CC3=O)cc1 (configuration not stated) | 0
* OCC1OC(O[C@H]2CN3[C@H](O)[C@@H](O)[C@H](O)[C@H]3C2O)C(O)C(O)C1O (some centres not stated) | 0
* CCOC(=O)C1C(=O)C=C(c2cc(C)ccc2O)CC1c1cccc(Br)c1 (configuration not stated) | 0
* C=CCN(N=O)C(=O)N(CCCCC(NC(C)=O)C(=O)NCc1ccccc1)Cc1ccccc1 (configuration not stated) | 0
* Cc1ccc(S(=O)(=O)N[C@H](C(=O)O)c2ccccc2)cc1 | 0
* Cc1ccc(-c2c(C#N)c(-c3ccccc3)c(C#N)c(=O)n2NS(=O)(=O)c2ccc(C)cc2)cc1 | 0
* C[N+]1(C)CCOC(O)(c2ccccc2)C1 (configuration not stated) | 0
* CN1CC2CN(Cc3ccccc3)CCN2c2cccnc21 (configuration not stated) | 0
* CC(C)=CCN(N=O)c1ncnc2[nH]cnc12 | 0
* Cc1nc2ccc([N+](=O)[O-])cc2c(=O)n1C(=S)Nc1cccc(Cl)c1 | 0
* CC1(C)COC(c2cccnc2/C=N/O)=N1 | 0
* N#CC1C2CCC3(CC2CCN1C(=O)c1ccccc1)OCCO3 (configuration not stated) | 0
* Oc1ccc2ccccc2c1/N=N/c1ccc(F)cc1 | 0
* [N-]=[N+]=Nc1c(-c2ccccc2)c(Cl)nc2ccccc12 | 0
* CNS(=O)(=O)NNS(=O)(=O)c1ccc(OC)cc1 | 0
* NCCc1cc(O)c(O)cc1O [OXIDOPAMINE HYDROCHLORIDE] | 0
* O=C1CCCc2cc3c(cc21)CC1(C3)Cc2cc3c(cc2C1)C(=O)CCC3 | 1
* FC(F)(F)c1nc2ccc(SSc3ccc4nc(C(F)(F)F)[nH]c4c3)cc2[nH]1 | 0
* O=C(NCCCCCCNC(=O)c1cc(-c2ccccc2)nc2ccccc12)c1cc(-c2ccccc2)nc2ccccc12 | 0
